# experiment summary: chemical genetic growth profiling, strain panel (AID 1159580);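 further: tested at 20 µM; growth read once vehicle control cultures reached saturation at 30 °C; 1 = growth at the plate median or of vehicle wells; lower values mean less growth of the strain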
# conditions used: S. cerevisiae deletion strains, growth OD, locus YPR025C, strain CCL1, stronger effect = lower value
About 2,000 (36%) of roughly 5,500 compounds were called active. About 18% were inconclusive and are not listed. The list shows a part of the results.
normalized growth reference
Number, no unit, nothing else.

Here is how some molecules turned out for normalized growth.
stdin: Looking for the measured normalized growth of O=[N+]([O-])c1ccc(ON=C2CCCCC2)c([N+](=O)[O-])c1 , can you help?
stdout: 1

stdin: Record request: normalized growth value, item Cc1cc(C)cc(Sc2ccc3nnc(-c4ccccc4)n3n2)c1
stdout: 0.984

stdin: What value of normalized growth has been recorded for this entry: O=C(ON=C1CCCCC1)c1ccc([N+](=O)[O-])cc1
stdout: 0.948

Others:
stdin: For the molecule COc1ccc(C(CC(=O)c2ccccc2)Sc2ccccc2N)cc1OC (centres undefined) , what normalized growth is on record?
stdout: 0.976

* * *

# experiment summary: chemical genetic growth profiling, strain panel (AID 1159580);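 further: tested at 20 µM; growth read once vehicle control cultures reached saturation at 30 °C; 1 = growth at the plate median or of vehicle wells; lower values mean less growth of the strain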
# conditions used: S. cerevisiae deletion strains, growth OD, locus YPL240C, strain hsp82, stronger effect = lower value
The whole screen tested about 5,500 compounds, of which about 2,000 (36%) were called active. Inconclusive results (about 18%) are left out. Some of the results follow.
# reported normalized growth; entries follow

Examples from the recorded data:
stdin: Form field: reported normalized growth of CCC[C@H](N[C@@H](C)C(=O)N1[C@H](C(=O)O)C[C@@H]2CCCC[C@@H]21)C(=O)OCC
stdout: 1.02 (inactive)

stdin: Any idea what its normalized growth is? The compound is COc1ccc(C(=O)O)cc1OC
stdout: 1 (inactive)

stdin: Quick check: normalized growth of C=CC[C@]1(O)CCC2C3CCC4=CC(=O)CCC4=C3C=C[C@@]21C (some centres not stated) ?
stdout: 0.991 (inactive)

Now turn to the next compound.
stdin: Need normalized growth of COc1ccc(-c2coc3cc(O)ccc3c2=O)c(OC)c1O , thanks.
stdout: 1 (inactive)

* * *

# experiment summary: chemical genetic growth profiling, strain panel (AID 1159580);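 further: tested at 20 µM; growth read once vehicle control cultures reached saturation at 30 °C; 1 = growth at the plate median or of vehicle wells; lower values mean less growth of the strain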
# conditions used: S. cerevisiae deletion strains, growth OD, locus YDR195W, strain ref2
Among all 5,500 compounds or so, about 2,000 (36%) were called active. Not shown: some 18% with an inconclusive outcome. Cut-off read from the data, not from the text of the source: active = normalized growth mostly below about 0.91 (no sharp cut-off); inconclusive = no clear call, values can overlap the other calls; inactive = mostly above about 0.92. The list shows a part of the results.
Parameter call: string, one of active, inactive

stdin: So what was the verdict on c1ccc2c(c1)CCCC2C1=NCCN1 (stereo unspecified) in this test?
stdout: inactive

stdin: Assay result, entry CCN(CC)C(=O)N1CCN(C)CC1 — outcome?
stdout: inactive

stdin: Each molecule tested received a call. Report the one for c1ccc2c(c1)sc1ccccc12 .
stdout: inactive

stdin: Could you please tell me the result logged for C[n+]1c2cc(N)ccc2cc2ccc(N)cc21 in this assay?
stdout: active

stdin: Please share the test call associated with CC[C@@]1(O)C[C@H](O)c2c(cc3c(c2O)C(=O)c2c(O)ccc(O)c2C3=O)[C@H]1C(=O)OC .
stdout: active

More entries:
stdin: // outcome(item) with item = CC[C@@]1(O)C[C@H](O[C@H]2C[C@H](N(C)C)[C@H](O)[C@H](C)O2)c2c(cc3c(c2O)C(=O)c2c(O)ccc(O)c2C3=O)[C@H]1C(=O)OC
stdout: inactive

* * *

# experiment summary: chemical genetic growth profiling, strain panel (AID 1159580);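 further: tested at 20 µM; growth read once vehicle control cultures reached saturation at 30 °C; 1 = growth at the plate median or of vehicle wells; lower values mean less growth of the strain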
# conditions used: S. cerevisiae deletion strains, growth OD, locus YEL061C, strain CIN8 (second series), stronger effect = lower value
Screen size: about 5,500 compounds; about 2,000 (36%) were called active. Not shown: some 18% with an inconclusive outcome. The list shows a part of the results.
endpoint: normalized growth
Reply with just the number.

Example entries and their recorded answers appear below.
stdin: Please give the measured normalized growth for this molecule: Oc1cc(O)c2c(c1)O[C@H](c1ccc(O)c(O)c1)[C@@H](O)C2
stdout: 1

stdin: // returns reported normalized growth for input CC1CCc2cc(F)cc3c(=O)c(C(=O)O)cn1c23 (stereo unspecified)
stdout: 0.993

stdin: What does the data say about its normalized growth? Entry: Nc1nc(=S)c2[nH]cnc2[nH]1
stdout: 0.975

stdin: Sample Oc1cc(O)c2c(c1)O[C@H](c1ccc(O)c(O)c1)[C@H](O)C2 — what was its normalized growth?
stdout: 1

stdin: Bench note: what normalized growth did Oc1cc(O)c2c(c1)O[C@H](c1cc(O)c(O)c(O)c1)[C@H](O)C2 show?
stdout: 1.03

***
stdin: Which normalized growth value belongs to COc1ccc([C@H]2Oc3c(I)c(OC)cc(OC)c3C[C@@H]2O)cc1OC ?
stdout: 1.02

stdin: Given the molecule CC1(C)S[C@@H]2[C@H](NC(=O)[C@H](N)c3ccccc3)C(=O)N2[C@H]1C(=O)O , what is its reported normalized growth?
stdout: 0.97

stdin: Returns the measured normalized growth for the input molecule. Input: COc1ccc(C2CNC(=O)C2)cc1OC1CCCC1 (stereo unspecified)
stdout: 1.01

stdin: Form field: reported normalized growth of CCN(CC)Cc1ccc(Nc2ccnc3cc(Cl)ccc23)cc1O
stdout: 1.01

stdin: Need normalized growth, item C[C@]12CCC(=O)C=C1C=CC1C2CC[C@@]2(C)C1CC[C@@]21CCC(=O)O1 (stereo partly specified)
stdout: 0.967

stdin: What value of measured normalized growth is listed for CNCCC(Oc1ccc(C(F)(F)F)cc1)c1ccccc1 (stereo unspecified) ?
stdout: 0.998

Cited source for all entries: PubChem BioAssay AID1159580
